Attribution: paper PMC4434572

Test system: cancer cells on SISgel or plastic
Experiment: Activity of leads and analogs on cancer cells grown on plastic vs SISgel (cell line not stated)
Format: cell-based
Settings: ratio IC50-p/IC50-S
property: SR
Answers are plain numbers.

Example results:
[[record]]
molecule = "O=[N+]([O-])c1ccc(N=Nc2c(S(=O)(=O)[O-])cc3cc(S(=O)(=O)[O-])cc(O)c3c2O)cc1.[Na+].[Na+] [Acid Red 60 Chromotrope 2B]"
recordedmeasurement = 1.2

[[record]]
molecule = "O=S(=O)([O-])c1ccc(N=Nc2c(S(=O)(=O)[O-])cc3cc(S(=O)(=O)[O-])cc(O)c3c2O)cc1.[Na+].[Na+].[Na+]"
recordedmeasurement = 2.0

[[record]]
molecule = "O=S(=O)([O-])c1cc(O)c2c(O)c(N=Nc3ccccc3)c(S(=O)(=O)[O-])cc2c1.[Na+].[Na+]"
recordedmeasurement = 0.98

[[record]]
molecule = "O=S(=O)([O-])c1ccc(N=Nc2ccc(O)c3ccccc23)cc1.[Na+]"
recordedmeasurement = 0.55

[[record]]
molecule = "O=S(=O)(O)c1ccc2c(O)c(N=Nc3cccc4ccccc34)c(S(=O)(=O)O)cc2c1.[Na+]"
recordedmeasurement = 1


input: // returns reported SR for input "O=S(=O)([O-])c1cc(Nc2nc(Cl)nc(Cl)n2)c2c(O)c(N=Nc3ccccc3)c(S(=O)(=O)[O-])cc2c1.[Na+].[Na+]"
output: 1.4

====

For each entry below, report its SR value.
Test system: cancer cells on SISgel or plastic
Assay: Activity of leads and analogs on cancer cells grown on plastic vs SISgel (cell line not stated)
Assay type: cell-based
Settings: ratio IC50-p/IC50-S
Answers are plain numbers.

Batch: SR for all items listed.
1. O=S(=O)([O-])c1ccccc1N=Nc1c(S(=O)(=O)[O-])cc2cc(S(=O)(=O)[O-])c(N=Nc3ccccc3S(=O)(=O)[O-])c(O)c2c1O.[Na+].[Na+].[Na+].[Na+]
2. COc1ccccc1N=Nc1c(S(=O)(=O)[O-])cc2cc(S(=O)(=O)[O-])cc(NC(C)=O)c2c1O.[Na+].[Na+]
3. O=S(=O)([O-])c1cc(Cl)cc(N=Nc2ccc3c(S(=O)(=O)[O-])cccc3c2O)c1O.[Na+].[Na+]

output:
2
2.2
1.8

====

Test system: mice
Assay: Toxicity / maximum tolerated dose in mice
Settings: mice
property: toxicity in mice

[[record]]
compound = "COc1ccc(C2C3=C(CCCC3=O)NC3=C2C(=O)c2ccccc23)c(OC)c1OC (stereo not shown)"
property = "toxicity in mice"
recordedmeasurement = "dose-limiting toxicity"

[[record]]
compound = "COc1ccc(CC(=O)Oc2ccc3c(c2)C(C)=CC(C)(C)N3)cc1"
property = "toxicity in mice"
recordedmeasurement = "dose-limiting toxicity"

[[record]]
compound = "O=S(=O)([O-])c1cc(O)c2c(O)c(N=Nc3cccc4ccccc34)c(S(=O)(=O)[O-])cc2c1.[Na+].[Na+]"
property = "toxicity in mice"
recordedmeasurement = "very low toxicity"

[[record]]
compound = "O=S(=O)([O-])c1ccc2c(N=Nc3cccc4ccccc34)c(O)c(S(=O)(=O)[O-])cc2c1.[Na+].[Na+]"
property = "toxicity in mice"
recordedmeasurement = "very low toxicity"


====

Tested on: Capan-1 (pancreatic)
Experiment: Proliferation EC50 on SISgel vs monolayer
Type: cell-based
Conditions: Homo sapiens; Capan-1 on SISgel; n = 6-8; read-out: EC50 SISgel
property: EC50
Numeric answer plus unit only.

input: // returns reported EC50 for input Nc1ccn([C@@H]2O[C@H](CO)[C@@H](O)C2(F)F)c(=O)n1 [gemcitabine, reference compound]
output: 83.1 µM
